# System: BT-549 breast
# method_summary: NCI tumour cell line growth inhibition, 48 h
reported_metric: TGI (µM)
Response body: numeric value in µM, unit text excluded.

Give the reported TGI for CN1c2ccccc2SC2C(c3ccccc3)=NOC21 (stereo unspecified) (system: BT-549 breast).
68.4

How about CCCCCCCCCCCCCCCCCCOCC(COCCOCC[N+]1(CCCCCC(=O)[O-])CCCC1)Oc1ncccn1 (stereo unspecified) ?
21.4

Also need C=C1C(=O)C23C(O)C1CC[C@H]2C12CCCC(C)(COC(C)=O)[C@H]1[C@H](O)[C@]3(O)OC2 (stereo partly specified) , thanks.
2.86

Check COc1ccc(Oc2cnn(C(Br)(Br)C(C)=O)c(=O)c2Br)cc1 too.
32.1

Now consider CC(C)[Si](OC/C(=C/COC(C)(C)C)[C@H]1CC=C(C(=O)c2ccccc2N2CN(C)C(=O)N(C)C2)C1)(C(C)C)C(C)C and answer again.
26.5

// query: CC(C)[O-].CC(C)[O-].CN(CCN(C)Cc1cc(F)cc(F)c1[O-])Cc1cc(F)cc(F)c1[O-].[Ti+4]
5.92

Same question for O=C1c2ccccc2-c2c1c1c(NCCCO)nc3ccccc3c1n2Cc1ccccc1 please.
43.7

Reference source: PubChem BioAssay (NCI)
